Please respond with reported pIC50 for every item in the list.
- EXPERIMENTAL_TARGET: Adenosine receptor A2a (Homo sapiens)
- Sequence (P29274 whole entry): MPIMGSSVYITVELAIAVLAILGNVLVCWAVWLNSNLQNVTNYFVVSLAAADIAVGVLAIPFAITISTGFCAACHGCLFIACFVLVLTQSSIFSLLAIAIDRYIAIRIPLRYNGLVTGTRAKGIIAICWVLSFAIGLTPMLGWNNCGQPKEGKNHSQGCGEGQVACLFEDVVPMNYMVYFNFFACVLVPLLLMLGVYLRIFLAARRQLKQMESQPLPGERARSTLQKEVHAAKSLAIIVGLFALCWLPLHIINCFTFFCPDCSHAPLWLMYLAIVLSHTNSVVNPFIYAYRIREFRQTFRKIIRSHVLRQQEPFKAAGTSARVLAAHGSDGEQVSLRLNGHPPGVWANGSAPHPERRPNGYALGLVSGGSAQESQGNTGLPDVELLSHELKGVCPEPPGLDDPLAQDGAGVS
- PROTOCOL_NOTES: Antagonist activity at human adenosine A2A receptor expressed in CHO cell membranes assessed as inhibition of NECA-stimulated cAMP level preincubated for 10 mins followed by NECA stimulation by scintillation counting method in presence of [3H]-cyclic AMP
Note on pIC50: it is the negative log10 of concentration, concentration in mol/L.

Exercise: GET /values?readout=pIC50&system=Adenosine receptor A2a (Homo sapiens)&item= COc1cccc(Cn2cc3nc(-c4ccc(C)o4)nc(N)c3n2)c1
Solution: 8.19

Exercise: GET /values?readout=pIC50&system=Adenosine receptor A2a (Homo sapiens)&item= COc1ccccc1Cn1cc2nc(-c3ccc(C)o3)nc(N)c2n1
Solution: 8.36

Exercise: GET /values?readout=pIC50&system=Adenosine receptor A2a (Homo sapiens)&item= Cc1ccc(-c2nc(N)c3nn(Cc4ccccc4)cc3n2)o1
Solution: 7.96

Exercise: GET /values?readout=pIC50&system=Adenosine receptor A2a (Homo sapiens)&item= COc1ccccc1Cn1cc2nc(-c3ccco3)nc(N)c2n1
Solution: 8.21
